- measuredOn: recombinant hNK1R expressed in CHO cells (Homo sapiens, UniProt P25103)
- Sequence (P25103 whole entry): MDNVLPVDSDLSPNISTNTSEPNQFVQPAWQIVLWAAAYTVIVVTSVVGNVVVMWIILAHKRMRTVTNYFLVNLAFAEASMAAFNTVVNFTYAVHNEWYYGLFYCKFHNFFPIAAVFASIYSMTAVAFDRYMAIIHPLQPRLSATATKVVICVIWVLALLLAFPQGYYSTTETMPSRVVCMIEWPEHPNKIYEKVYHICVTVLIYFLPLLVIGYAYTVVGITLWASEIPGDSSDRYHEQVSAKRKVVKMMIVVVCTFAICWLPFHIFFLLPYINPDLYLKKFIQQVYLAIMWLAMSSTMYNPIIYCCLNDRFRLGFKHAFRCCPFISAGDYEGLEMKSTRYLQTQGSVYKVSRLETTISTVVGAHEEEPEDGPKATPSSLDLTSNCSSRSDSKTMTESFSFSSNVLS
- assayInfo: Intracellular calcium mobilization (FLIPR) in CHO-hNK1 cells
- Assay type: cell-based
- measurementParameters: calcium mobilization, CHO-hNK1 cells; read-out: hNK1 EC50
- Description: CHO-hNK1 and CHO-hNK2 cells were seeded into black walled clear-bottom 384-well plates) at a density of 10,000 and 15,000 cells per well in 50 μL culture media, respectively, and grown overnight at 37° C. in a humidified CO2-incubator. […] Loaded cell plates were transferred to the FLIPR machine and calcium responses were monitored as described below. A dual read-out FLIPR protocol was used, allowing for characterization of both agonist and antagonist profiles. […]
Where no end group is shown, it is not given here.
propertyLabel: EC50

Provide EC50 value for the following substance: DRFVGLM-NH2 [H, Asp-Arg-Phe-Val-Gly-Leu-Met-NH2]
0.16 nM

---

- assayInfo: Saline solubility of heptapeptides
- Type: physicochemical
Where no end group is shown, it is not given here.
propertyLabel: solubility

Provide solubility value for the following substance: DRFVGLM-NH2 [H, Asp-Arg-Phe-Val-Gly-Leu-Met-NH2]
< 1000 µg/mL

---

- assayInfo: Saline solubility of heptapeptides
- Format: physicochemical
Where a SMILES comes first, the peptide text is derived from it.
Please go through the items and note down their solubility.

Provide solubility value for the following compound: CCCC[C@H](NC(=O)[C@H](CC(C)C)NC(=O)CCNC(=O)[C@@H](NC(=O)[C@H](Cc1ccccc1)NC(=O)[C@H](CCCNC(=N)N)NC(=O)[C@@H](N)CC(=O)O)C(C)C)C(N)=O [K, Asp-Arg-Phe-Val-(β-Ala)-Leu-Nle-NH2] (HELM PEPTIDE1{D.R.F.V.[bAla].L.[Nle].[am]}$$$$V2.0; N-terminus assumed)
< 1000 µg/mL

Provide solubility value for the following compound: CCCC[C@H](NC(=O)[C@H](CC(C)C)NC(=O)CNC(=O)[C@@H](NC(=O)[C@H](Cc1ccccc1)NC(=O)[C@H](CCCNC(=N)N)NC(=O)[C@@H](N)CC(=O)O)C(C)C)C(N)=O [J, Asp-Arg-Phe-Val-Gly-Leu-Nle-NH2] (HELM PEPTIDE1{D.R.F.V.G.L.[Nle].[am]}$$$$V2.0; N-terminus assumed)
< 1000 µg/mL

Provide solubility value for the following compound: CSCC[C@H](NC(=O)[C@H](CC(C)C)N(C)C(=O)CNC(=O)[C@@H](NC(=O)[C@H](Cc1ccccc1)NC(=O)[C@H](CCCNC(=N)N)NC(=O)[C@@H](N)CC(=O)O)C(C)C)C(N)=O [C, Asp-Arg-Phe-Val-Gly-(NMe-Leu)-Met-NH2] (HELM PEPTIDE1{D.R.F.V.G.[meL].M.[am]}$$$$V2.0; N-terminus assumed)
> 20000 µg/mL

---

- measuredOn: recombinant hNK1R expressed in CHO cells (Homo sapiens, UniProt P25103)
- assayInfo: Intracellular calcium mobilization (FLIPR) in CHO-hNK1 cells
- Format: cell-based
- measurementParameters: calcium mobilization, CHO-hNK1 cells; read-out: hNK1 EC50
Where a SMILES comes first, the peptide text is derived from it.
propertyLabel: EC50 (nM)
Write it as a number; the unit nM goes unstated.

Provide EC50 value for the following molecule: CCCC[C@H](NC(=O)[C@H](CC(C)C)NC(=O)CNC(=O)[C@@H](NC(=O)[C@H](Cc1ccccc1)NC(=O)[C@H](CCCNC(=N)N)NC(=O)[C@@H](N)CC(=O)O)C(C)C)C(N)=O [J, Asp-Arg-Phe-Val-Gly-Leu-Nle-NH2] (HELM PEPTIDE1{D.R.F.V.G.L.[Nle].[am]}$$$$V2.0; N-terminus assumed)
1.71

Provide EC50 value for the following molecule: CCCC[C@H](NC(=O)[C@H](CC(C)C)NC(=O)CCNC(=O)[C@@H](NC(=O)[C@H](Cc1ccccc1)NC(=O)[C@H](CCCCN)NC(=O)[C@@H](N)CC(=O)O)C(C)C)C(N)=O [Compound G, Asp-Lys-Phe-Val-(β-Ala)-Leu-Nle-NH2] (HELM PEPTIDE1{D.K.F.V.[bAla].L.[Nle].[am]}$$$$V2.0; N-terminus assumed)
78.2
